Target: PI3K (p110γ) (Homo sapiens)
Sequence (P48736 whole entry): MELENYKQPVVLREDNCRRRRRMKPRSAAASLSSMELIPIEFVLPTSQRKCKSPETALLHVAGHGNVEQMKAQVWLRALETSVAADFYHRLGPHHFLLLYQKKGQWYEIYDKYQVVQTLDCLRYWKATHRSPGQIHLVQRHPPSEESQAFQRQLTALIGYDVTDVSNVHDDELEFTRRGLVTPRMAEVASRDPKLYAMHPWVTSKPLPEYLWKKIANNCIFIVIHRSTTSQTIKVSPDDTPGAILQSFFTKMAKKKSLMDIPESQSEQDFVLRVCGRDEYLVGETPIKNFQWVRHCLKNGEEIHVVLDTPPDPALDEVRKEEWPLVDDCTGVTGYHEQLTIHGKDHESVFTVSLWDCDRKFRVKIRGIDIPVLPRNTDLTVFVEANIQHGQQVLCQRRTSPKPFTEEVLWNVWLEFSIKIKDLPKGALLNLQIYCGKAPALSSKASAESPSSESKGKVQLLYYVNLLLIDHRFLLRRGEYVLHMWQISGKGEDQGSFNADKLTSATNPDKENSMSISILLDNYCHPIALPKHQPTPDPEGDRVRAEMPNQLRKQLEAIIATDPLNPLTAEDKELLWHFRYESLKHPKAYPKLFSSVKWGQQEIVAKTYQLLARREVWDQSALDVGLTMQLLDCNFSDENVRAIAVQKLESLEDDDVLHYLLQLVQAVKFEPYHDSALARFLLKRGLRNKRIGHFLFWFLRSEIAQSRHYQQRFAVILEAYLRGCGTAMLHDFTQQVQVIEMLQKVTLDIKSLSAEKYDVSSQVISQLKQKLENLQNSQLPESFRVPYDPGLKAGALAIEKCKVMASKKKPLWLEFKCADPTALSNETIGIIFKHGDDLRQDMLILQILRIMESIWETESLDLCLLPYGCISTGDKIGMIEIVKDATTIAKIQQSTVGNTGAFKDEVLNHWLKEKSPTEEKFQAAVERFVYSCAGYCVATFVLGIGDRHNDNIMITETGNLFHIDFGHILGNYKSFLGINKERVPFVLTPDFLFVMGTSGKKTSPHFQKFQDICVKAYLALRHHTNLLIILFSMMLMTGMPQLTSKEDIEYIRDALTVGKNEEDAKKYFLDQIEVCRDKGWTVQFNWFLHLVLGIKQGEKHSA
Test: PI3Kγ assay (ADP-Glo Kinase Assay)
Type: biochemical
Conditions: recombinant enzyme; IC50 (nM) or max inhibition (%) at 0.5 μM
MEASUREMENT NAME: IC50 (nM)
Please give a number only; it is taken to be in nM.

These solved cases illustrate the format of a correct answer.
COMPOUND: Cc1nc(C(C)c2cc(Cl)c(F)c(C(=O)N3CCC(F)(F)CC3)c2OC(C)C)n2ccnc(N)c12 (single isomer, unassigned) [Compound 13A]
TEST TARGET: PI3K (p110γ) (Homo sapiens)
EXPERIMENTAL VALUE: 9300
//
COMPOUND: Cc1nc([C@@H](C)c2cc(Cl)c(F)c(C(=O)N[C@H]3C[C@H](O)C3)c2OC(C)C)n2ccnc(N)c12 [Compound 61]
TEST TARGET: PI3K (p110γ) (Homo sapiens)
EXPERIMENTAL VALUE: 4500

Tell me its IC50 given Cc1nc([C@@H](C)c2cc(Cl)c(F)c(C(=O)N[C@H]3CCC[C@@H]3O)c2OC(C)C)n2ccnc(N)c12 [Compound 37] as the entry. 2500

====

Target: PI3K (p110γ) (Homo sapiens)
Assay: PI3Kγ assay (ADP-Glo Kinase Assay)
Type: biochemical
Conditions: recombinant enzyme; IC50 (nM) or max inhibition (%) at 0.5 μM
# maps each entry to its IC50

CHEMICAL SMILES: Cc1nc([C@@H](C)c2cc(Cl)c(F)c(C(=O)NC[C@H]3CCOC3)c2OC(C)C)n2ccnc(N)c12
EXPERIMENTAL VALUE: 3200 nM
--
CHEMICAL SMILES: COc1ccc([C@@H](C)NC(=O)c2c(F)c(Cl)cc([C@H](C)c3nc(C)c4c(N)nccn34)c2OC(C)C)cc1
EXPERIMENTAL VALUE: 460 nM
--
CHEMICAL SMILES: CCCNC(=O)c1c(F)c(Cl)cc([C@H](C)c2nc(C)c3c(N)nccn23)c1OC(C)C
EXPERIMENTAL VALUE: 5500 nM

// next item, IC50 requested
Tell me its IC50 given Cc1nc([C@@H](C)c2cc(Cl)c(F)c(C(=O)NC3(CO)CC3)c2OC(C)C)n2ccnc(N)c12 as the entry. 6300 nM

====

Assay: Pharmacokinetic properties in Sprague-Dawley rats after intravenous (IV) and oral (PO) administration
Format: in vivo
Conditions: male, Sprague-Dawley, plasma, 1 mg/kg; rat, IV 1 mpk
# maps each entry to its AUC(0-inf)
Please give a number only; it is taken to be in ng·h/mL.

COMPOUND: Cc1nc([C@@H](C)c2cc(Cl)c(F)c(C(=O)N[C@H]3CC[C@H](O)CC3)c2OC(C)C)n2ccnc(N)c12 [Compound 60]
MEASUREMENT UNIT: ng·h/mL
AUC(0-inf): 218

Tell me its AUC(0-inf) given Cc1nc([C@@H](C)c2cc(Cl)c(F)c(C(=O)NCCN3CCN(C)CC3)c2OC(C)C)n2ccnc(N)c12 [Compound 73] as the entry. 194

====

Assay: Pharmacokinetic properties in Sprague-Dawley rats after intravenous (IV) and oral (PO) administration
Assay type: in vivo
Conditions: male, Sprague-Dawley, plasma, 5 mg/kg; rat, PO 5 mpk
MEASUREMENT NAME: Cmax (ng/mL)
Please give a number only; it is taken to be in ng/mL.

Tell me its Cmax given Cc1nc([C@@H](C)c2cc(Cl)c(F)c(C(=O)N[C@H]3CC[C@H](O)CC3)c2OC(C)C)n2ccnc(N)c12 as the entry. 133
